Ref: PubChem BioAssay (NCI)

- Tested on: SK-MEL-2 melanoma
- assay.method.text: NCI-60 one-dose screen, 48 h
- test.context: 10 µM unless noted
This is part of a sample that, as a whole, favours compounds with a hit. Of some 83,000 tested, about 20% had one in any assay. Calls of active or inactive are those of the source. Rule for the calls: active = growth percent below 10; inactive = the rest.
Respond using exactly one of the listed classes: active, inactive

// param item: "CCOC(=O)CSc1c(-c2ccccc2)c2cc(Cl)ccc2[nH]c1=O" ; yields the recorded call
inactive

// outcome(item) with item = "CC1=C(C(=O)OCC2CCN(C(=O)OC(C)(C)C)CC2)[C@H](c2cccc(Br)c2)C2=C(CC(C)(C)CC2=O)N1"
inactive

Could you check what this test reported for "COc1cc2nc(NC3CCCC3)nc(NC3CCN(C(C)C)CC3)c2cc1OC" ?
inactive

Status in this test for "O=c1oc2ccc(Cl)cc2c(=O)n1-c1ccc(Cl)cc1F" ?
active

Would you mind telling me which call this test gave "CCOC(=O)c1c2c(n3cccc(Cl)c13)C(=O)c1ncccc1C2=O" ?
inactive
